TGT: Recombinant human cathepsin A (Homo sapiens)
Construct: Recombinant human cathepsin A (residues 29-480, with a C-terminal 10-His tag); 10-His (C); purchased R&D Systems 1049-SE
MEASUREMENT_PROTOCOL: Cathepsin A inhibitory activity
Format: biochemical
TEST_PARAMETERS: read-out: Activity (2): Cathepsin A inhibitory activity (IC50 class)
READOUT_NAME: IC50

**Query** GET /values?readout=IC50&item= Cc1ccc(C(CC(=O)O)NC(=O)c2cc(O)n(-c3ccccc3Cl)n2)c(F)c1 (stereo not shown)
**Result** 100 to 1000 nM

**Query** GET /values?readout=IC50&item= `Cc1cc(COc2cc(C(=O)N[C@@H](CC(=O)O)c3ccccc3C)nn2-c2ccccc2F)on1`
**Result** < 100 nM

**Query** GET /values?readout=IC50&item= `COc1cc(C(=O)N[C@@H](CC(=O)O)c2ccc(C)cc2)nn1-c1ccccc1F`
**Result** < 100 nM

**Query** GET /values?readout=IC50&item= `COc1c(Cl)c(C(=O)N[C@@H](CC(=O)O)c2ccccc2C)nn1-c1ccccc1F`
**Result** 100 to 1000 nM

**Query** GET /values?readout=IC50&item= O=C(O)CC(NC(=O)c1cc(O)n(-c2ccccc2Cl)n1)c1ccc(-c2ccccc2Cl)cc1 (stereo not shown)
**Result** 100 to 1000 nM

**Query** GET /values?readout=IC50&item= O=C(O)CC(NC(=O)c1cc(O)n(-c2ccccc2Cl)n1)c1ccc(-n2cccn2)cc1 (stereo not shown)
**Result** 100 to 1000 nM

**Query** GET /values?readout=IC50&item= `COc1cccc([C@H](CC(=O)O)NC(=O)c2cc(OC[C@@](C)(O)C(C)C)n(-c3ccccc3F)n2)c1OC`
**Result** < 100 nM

**Query** GET /values?readout=IC50&item= COc1cc(C(=O)NC(CC(=O)O)c2ccc(-c3ccccn3)cc2)nn1-c1ccccc1 (stereo not shown)
**Result** 100 to 1000 nM

**Query** GET /values?readout=IC50&item= `Cc1ccccc1[C@H](CC(=O)O)NC(=O)c1cc(OCC2CC2)n(-c2ccccc2)n1`
**Result** < 100 nM

**Query** GET /values?readout=IC50&item= Cc1ccccc1[C@H](CC(=O)O)NC(=O)c1cc(OCC2CC2(F)F)n(-c2ccccc2F)n1 (stereo partly shown)
**Result** < 100 nM

**Query** GET /values?readout=IC50&item= `Cc1ccccc1[C@H](CC(=O)O)NC(=O)c1cc(OCc2ccccc2C(F)(F)F)n(-c2ccccc2F)n1`
**Result** 100 to 1000 nM

**Query** GET /values?readout=IC50&item= Cc1ccccc1[C@H](CC(=O)O)NC(=O)c1cc(OCC(C)(O)C2CC2)n(-c2ccccc2F)n1 (stereo partly shown)
**Result** < 100 nM

**Query** GET /values?readout=IC50&item= `O=C(O)C[C@H](NC(=O)c1cc(OCC2CC2)n(-c2ccccc2F)n1)c1ccc(Cl)cc1`
**Result** 100 to 1000 nM

**Query** GET /values?readout=IC50&item= `CCOc1cc(C(=O)N[C@@H](CC(=O)O)c2ccccc2C(F)(F)F)nn1-c1ccccc1F`
**Result** 100 to 1000 nM

**Query** GET /values?readout=IC50&item= `Cc1ccccc1[C@H](CC(=O)O)NC(=O)c1cc(O)n(-c2cc(F)ccc2F)n1`
**Result** < 100 nM

**Query** GET /values?readout=IC50&item= COc1cc(C(=O)NC(CC(=O)O)c2cc(Cl)ccc2Cl)nn1-c1ccccc1F (stereo not shown)
**Result** < 100 nM

* * *

Entries annotated with measured pIC50
TGT: Recombinant human cathepsin A (Homo sapiens)
Construct: Recombinant human cathepsin A (residues 29-480, with a C-terminal 10-His tag); 10-His (C); purchased R&D Systems 1049-SE
Sequence (P10619 29-312 limits assumed): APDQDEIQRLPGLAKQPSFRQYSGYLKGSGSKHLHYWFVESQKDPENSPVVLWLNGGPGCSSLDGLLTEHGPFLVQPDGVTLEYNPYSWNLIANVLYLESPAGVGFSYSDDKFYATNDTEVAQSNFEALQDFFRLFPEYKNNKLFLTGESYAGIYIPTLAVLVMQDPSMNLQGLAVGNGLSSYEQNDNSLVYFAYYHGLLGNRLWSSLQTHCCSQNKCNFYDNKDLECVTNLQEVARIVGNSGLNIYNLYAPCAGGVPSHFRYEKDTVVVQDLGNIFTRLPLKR
Sequence (P10619 327-480 limits assumed): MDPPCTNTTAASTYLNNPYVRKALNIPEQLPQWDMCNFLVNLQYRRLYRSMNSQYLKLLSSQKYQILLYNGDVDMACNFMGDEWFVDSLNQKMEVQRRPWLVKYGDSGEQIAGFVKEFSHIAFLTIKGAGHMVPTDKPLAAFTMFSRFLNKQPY
MEASUREMENT_PROTOCOL: Cathepsin A inhibitory activity
Assay type: biochemical
TEST_PARAMETERS: pharmacological test "Cathepsin A inhibitory activity"; IC50 given as class A/B/C; read-out: Activity (2): Cathepsin A inhibitory activity, IC50 class
Description: a) Cathepsin A Inhibitory Activity Recombinant human cathepsin A (residues 29-480, with a C-terminal 10-His tag; R&D Systems, #1049-SE) was proteolytically activated with recombinant human cathepsin L (R&D Systems, #952-CY). […] Uncleaved substrate and product were then separated by a microfluidic capillary electrophoresis on a LabChip® 3000 Drug Discovery System (12-Sipper-Chip; Caliper Life Sciences) and quantified by determination of the respective peak areas. […]
pIC50: −log10 of the molar value.

**Query** GET /values?readout=pIC50&item= `O=C(O)C[C@H](NC(=O)c1cc(O)n(-c2ccc(F)cc2F)n1)c1ccc(F)cc1`
**Result** 6.00 to 7.00

**Query** GET /values?readout=pIC50&item= `Cc1cccc([C@H](CC(=O)O)NC(=O)c2cc(O)n(-c3ccc(F)cc3F)n2)c1`
**Result** 6.00 to 7.00

**Query** GET /values?readout=pIC50&item= Cc1cccc(C(CC(=O)O)NC(=O)c2cc(O)n(-c3ccc(F)cc3F)n2)c1C (stereo not shown)
**Result** > 7.00

* * *

TGT: Recombinant human cathepsin A (Homo sapiens)
Construct: Recombinant human cathepsin A (residues 29-480, with a C-terminal 10-His tag); 10-His (C); purchased R&D Systems 1049-SE
MEASUREMENT_PROTOCOL: Cathepsin A inhibitory activity
Format: biochemical
TEST_PARAMETERS: read-out: Activity (2): Cathepsin A inhibitory activity (IC50 class)
pIC50: −log10 of the molar value.
Entries annotated with measured pIC50

Below: 4 compounds and their reported pIC50.
O=C(O)C[C@H](NC(=O)c1cc(OCC2CC2)n(-c2ccccc2F)n1)c1ccccc1F :: 6.00 to 7.00
CC(C)(C)[C@](C)(O)COc1cc(C(=O)N[C@@H](CC(=O)O)c2ccccc2Cl)nn1-c1ccccc1F (single isomer, unassigned) [Example 759] :: > 7.00
CC(C)(C)[C@@](C)(O)COc1cc(C(=O)N[C@@H](CC(=O)O)c2ccccc2Cl)nn1-c1ccccc1F (single isomer, unassigned) [Example 758] :: > 7.00
Cc1ccccc1[C@H](CC(=O)O)NC(=O)c1cc(OCC2CCC2)n(-c2ccccc2F)n1 :: > 7.00

**Query** GET /values?readout=pIC50&item= CS(=O)(=O)c1ccc(C(CC(=O)O)NC(=O)c2cc(O)n(-c3ccccc3)n2)cc1 (stereo not drawn)
**Result** 4.52 to 6.00

**Query** GET /values?readout=pIC50&item= COc1ccc(F)c(C(CC(=O)O)NC(=O)c2cc(O)n(-c3ccccc3)n2)c1 (stereo not drawn)
**Result** 4.52 to 6.00

**Query** GET /values?readout=pIC50&item= `Cc1ccccc1[C@H](CC(=O)O)NC(=O)c1cc(OCC(=O)N2CCCC2)n(-c2ccccc2F)n1`
**Result** > 7.00

**Query** GET /values?readout=pIC50&item= `Cc1ccccc1[C@H](CC(=O)O)NC(=O)c1cc(OCC(=O)C(C)(C)C)n(-c2ccccc2F)n1`
**Result** > 7.00

* * *

TGT: Recombinant human cathepsin A (Homo sapiens)
Construct: Recombinant human cathepsin A (residues 29-480, with a C-terminal 10-His tag); 10-His (C); purchased R&D Systems 1049-SE
MEASUREMENT_PROTOCOL: Cathepsin A inhibitory activity
Assay type: biochemical
TEST_PARAMETERS: read-out: Activity (2): Cathepsin A inhibitory activity, IC50 class
pIC50: −log10 of the molar value.
Entries annotated with measured pIC50

Below: 3 compounds and their reported pIC50.
O=C(O)C[C@H](NC(=O)c1cc(O)n(-c2cccc(F)c2)n1)c1ccc(Cl)cc1 :: 6.00 to 7.00
O=C(O)CC(NC(=O)c1cc(O)n(-c2ccc(Cl)cc2)n1)c1cccc(Oc2ccc(Cl)cc2)c1 (centres unmarked) :: 4.52 to 6.00
O=C(O)CC(NC(=O)c1cc(O)n(-c2ccc(F)cc2)n1)c1cccc(Cl)c1Cl (centres unmarked) :: 6.00 to 7.00

**Query** API: value(readout= pIC50, system= Recombinant human cathepsin A (Homo sapiens), query= `O=C(O)C[C@H](NC(=O)c1cc(O)n(-c2ccccc2F)n1)c1ccc(C(F)(F)F)cc1` )
**Result** 6.00 to 7.00
